Test: Cytotoxicity against human C32 cells after 4 days
Type: cell-based

# chemSmiles, unitsSymbol, modifierSign, CC50 at 96 h
measured = [
    ("CC(C)OC(=O)[C@H](Cc1ccccc1)NP(=O)(CCN(CCOCc1ccccc1)CCn1cnc2c(=O)[nH]cnc21)N[C@@H](Cc1ccccc1)C(=O)OC(C)C", "µM", "=", 13),
    ("CC(C)OC(=O)[C@H](Cc1ccccc1)NP(=O)(CCN(CCOCc1ccccc1)CCn1cnc2c(=O)[nH]c(N)nc21)N[C@@H](Cc1ccccc1)C(=O)OC(C)C", "µM", "=", 17),
    ("CCOC(=O)[C@H](Cc1ccccc1)NP(=O)(CCN(CCC(=O)OC)CCn1cnc2c(=O)[nH]cnc21)N[C@@H](Cc1ccccc1)C(=O)OCC", "µM", ">", 300),
    ("CCOC(=O)[C@H](Cc1ccccc1)NP(=O)(CCN(CCCC#N)CCn1cnc2c(=O)[nH]cnc21)N[C@@H](Cc1ccccc1)C(=O)OCC", "µM", "=", 102),
    ("CCOC(=O)[C@H](Cc1ccccc1)NP(=O)(CCN(CCn1cnc2c(=O)[nH]c(N)nc21)CCP(=O)(N[C@@H](Cc1ccccc1)C(=O)OCC)N[C@@H](Cc1ccccc1)C(=O)OCC)N[C@@H](Cc1ccccc1)C(=O)OCC", "µM", "=", 51),
    ("CCOC(=O)[C@H](Cc1ccccc1)NP(=O)(CCN(CCn1cnc2c(=O)[nH]cnc21)CP(=O)(N[C@@H](Cc1ccccc1)C(=O)OCC)N[C@@H](Cc1ccccc1)C(=O)OCC)N[C@@H](Cc1ccccc1)C(=O)OCC", "µM", "=", 23),
    ("CCOC(=O)[C@H](Cc1ccccc1)NP(=O)(CCN(CCC(=O)OC)CCn1cnc2c(=O)[nH]c(N)nc21)N[C@@H](Cc1ccccc1)C(=O)OCC", "µM", ">", 300),
    ("CCOC(=O)[C@H](Cc1ccccc1)NP(=O)(CCN(CCn1cnc2c(=O)[nH]cnc21)CCP(=O)(N[C@@H](Cc1ccccc1)C(=O)OCC)N[C@@H](Cc1ccccc1)C(=O)OCC)N[C@@H](Cc1ccccc1)C(=O)OCC", "µM", "=", 48),
    ("CCOC(=O)[C@H](Cc1ccccc1)NP(=O)(CCN(CCn1cnc2c(=O)[nH]c(N)nc21)CP(=O)(N[C@@H](Cc1ccccc1)C(=O)OCC)N[C@@H](Cc1ccccc1)C(=O)OCC)N[C@@H](Cc1ccccc1)C(=O)OCC", "µM", "=", 65),
    ("CCOC(=O)[C@H](Cc1ccccc1)NP(=O)(CCN(CCCC(=O)OC)CCn1cnc2c(=O)[nH]c(N)nc21)N[C@@H](Cc1ccccc1)C(=O)OCC", "µM", "=", 234),
]

###

Listing of recorded CC50 at 96 h by entry.
Assay: Cytotoxicity against human HGPRT-deficient thioguanine-resistant C32TG cells after 4 days
Format: cell-based

# chemSmiles, modifierSign, CC50 at 96 h (µM)
measured = [
    ("CCOC(=O)[C@H](Cc1ccccc1)NP(=O)(CCN(CCC(=O)OC)CCn1cnc2c(=O)[nH]cnc21)N[C@@H](Cc1ccccc1)C(=O)OCC", "=", 212),
    ("CCOC(=O)[C@H](Cc1ccccc1)NP(=O)(CCN(CCn1cnc2c(=O)[nH]c(N)nc21)CP(=O)(N[C@@H](Cc1ccccc1)C(=O)OCC)N[C@@H](Cc1ccccc1)C(=O)OCC)N[C@@H](Cc1ccccc1)C(=O)OCC", "=", 56),
    ("CCOC(=O)[C@H](Cc1ccccc1)NP(=O)(CCN(CCCC#N)CCn1cnc2c(=O)[nH]cnc21)N[C@@H](Cc1ccccc1)C(=O)OCC", "=", 89),
    ("CC(C)OC(=O)[C@H](Cc1ccccc1)NP(=O)(CCN(CCOCc1ccccc1)CCn1cnc2c(=O)[nH]c(N)nc21)N[C@@H](Cc1ccccc1)C(=O)OC(C)C", "=", 23),
    ("CCOC(=O)[C@H](Cc1ccccc1)NP(=O)(CCN(CCn1cnc2c(=O)[nH]c(N)nc21)CCP(=O)(N[C@@H](Cc1ccccc1)C(=O)OCC)N[C@@H](Cc1ccccc1)C(=O)OCC)N[C@@H](Cc1ccccc1)C(=O)OCC", "=", 53),
    ("CCOC(=O)[C@H](Cc1ccccc1)NP(=O)(CCN(CCn1cnc2c(=O)[nH]cnc21)CCP(=O)(N[C@@H](Cc1ccccc1)C(=O)OCC)N[C@@H](Cc1ccccc1)C(=O)OCC)N[C@@H](Cc1ccccc1)C(=O)OCC", "=", 48),
    ("CCOC(=O)[C@H](Cc1ccccc1)NP(=O)(CCN(CCn1cnc2c(=O)[nH]cnc21)CP(=O)(N[C@@H](Cc1ccccc1)C(=O)OCC)N[C@@H](Cc1ccccc1)C(=O)OCC)N[C@@H](Cc1ccccc1)C(=O)OCC", "=", 25),
    ("CCOC(=O)[C@H](Cc1ccccc1)NP(=O)(CCN(CCC(=O)OC)CCn1cnc2c(=O)[nH]c(N)nc21)N[C@@H](Cc1ccccc1)C(=O)OCC", ">", 300),
    ("CC(C)OC(=O)[C@H](Cc1ccccc1)NP(=O)(CCN(CCOCc1ccccc1)CCn1cnc2c(=O)[nH]cnc21)N[C@@H](Cc1ccccc1)C(=O)OC(C)C", "=", 18),
    ("CCOC(=O)[C@H](Cc1ccccc1)NP(=O)(CCN(CCCC(=O)OC)CCn1cnc2c(=O)[nH]c(N)nc21)N[C@@H](Cc1ccccc1)C(=O)OCC", "≥", 246),
]

###

Target: Hypoxanthine-guanine phosphoribosyltransferase (Homo sapiens)
Sequence (P00492 whole entry): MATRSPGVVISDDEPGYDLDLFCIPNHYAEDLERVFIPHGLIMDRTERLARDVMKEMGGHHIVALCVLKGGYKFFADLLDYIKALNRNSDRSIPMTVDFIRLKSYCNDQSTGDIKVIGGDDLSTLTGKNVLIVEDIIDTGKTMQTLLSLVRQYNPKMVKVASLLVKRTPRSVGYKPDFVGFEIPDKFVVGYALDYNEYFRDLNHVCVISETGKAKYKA
Assay: Inhibition of human HGPRT by spectrophotometric assay
Label true when Ki is strictly below 10000 nM; at or above that, label false.

# molecule, class
measured = [
    ("Nc1nc2c(ncn2CCN(CCP(=O)(O)O)CP(=O)(O)O)c(=O)[nH]1", "true"),
    ("O=c1[nH]cnc2c1ncn2CCN(CCP(=O)(O)O)CC(O)CO (stereo unspecified)", "true"),
    ("O=c1[nH]cnc2c1ncn2CCN(CCOCc1ccccc1)CCP(=O)(O)O", "false"),
    ("Nc1nc2c(ncn2CCN(CCP(=O)(O)O)CC(O)CO)c(=O)[nH]1 (stereo unspecified)", "true"),
    ("Nc1nc2c(ncn2CCN(CCOCc2ccccc2)CCP(=O)(O)O)c(=O)[nH]1", "true"),
]

###

Test: Cytotoxicity against human A549 cells after 4 days
Format: cell-based
Listing of recorded CC50 at 96 h by entry.
measurementType: CC50 at 96 h (µM)

# chemSmiles, modifierSign, reportedMeasurement
records = [
    ("CCOC(=O)[C@H](Cc1ccccc1)NP(=O)(CCN(CCn1cnc2c(=O)[nH]cnc21)CP(=O)(N[C@@H](Cc1ccccc1)C(=O)OCC)N[C@@H](Cc1ccccc1)C(=O)OCC)N[C@@H](Cc1ccccc1)C(=O)OCC", "=", 41),
    ("CCOC(=O)[C@H](Cc1ccccc1)NP(=O)(CCN(CCC(=O)OC)CCn1cnc2c(=O)[nH]c(N)nc21)N[C@@H](Cc1ccccc1)C(=O)OCC", ">", 300),
    ("CC(C)OC(=O)[C@H](Cc1ccccc1)NP(=O)(CCN(CCOCc1ccccc1)CCn1cnc2c(=O)[nH]cnc21)N[C@@H](Cc1ccccc1)C(=O)OC(C)C", "=", 23),
]
